- System: PPARg:RXRa (NR concentration 180 nM, RXRa partner concentration 90 nM)
- Method: PBM binding z-score (relative to random genomic background probes); higher = stronger binding; sequences stand for … in GC…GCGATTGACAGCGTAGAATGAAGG
Category key, based on recorded PBM binding z-score: lower bin = under 1, middle bin = from 1 up to 7, upper bin = 7 and over

Input line: Kindly state the category for this sequence: `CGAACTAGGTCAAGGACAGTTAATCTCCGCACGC`
Output line: upper bin

Input line: Category of `CCTACTGGGGCAAAGGTTACCATACTCAGTACGA` :
Output line: upper bin

Input line: Form: Item = `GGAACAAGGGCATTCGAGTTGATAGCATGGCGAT` ; Class = ?
Output line: lower bin

Input line: Dear colleague, I would appreciate it if you could identify the bin for `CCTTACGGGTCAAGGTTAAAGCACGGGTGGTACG` and reply at your convenience.
Output line: middle bin

Input line: Record `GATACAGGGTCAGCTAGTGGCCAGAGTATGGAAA` — which class?
Output line: middle bin

Input line: Could you tell me which band `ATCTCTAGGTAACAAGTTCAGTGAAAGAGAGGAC` belongs to?
Output line: middle bin

Input line: Consider `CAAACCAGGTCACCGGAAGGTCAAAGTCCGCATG` . To which PBM binding z-score class does it belong?
Output line: upper bin

Input line: Determine which band this sequence sits in: `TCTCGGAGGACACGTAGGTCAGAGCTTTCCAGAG`
Output line: lower bin

Input line: Dear colleague, I would appreciate it if you could identify the bin for `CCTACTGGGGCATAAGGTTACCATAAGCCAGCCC` and reply at your convenience.
Output line: middle bin

Input line: Lab note: sort `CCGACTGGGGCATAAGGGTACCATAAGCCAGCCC` into the matching PBM binding z-score band.
Output line: middle bin

Input line: Which bin should I file `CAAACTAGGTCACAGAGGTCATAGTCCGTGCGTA` under?
Output line: upper bin

Input line: Category of `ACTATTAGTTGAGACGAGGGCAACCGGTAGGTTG` , please.
Output line: lower bin
